Values compiled from PubChem BioAssay AID2060616.

- Tested on: 377384-186-R-J1-PDC complex spheroid viability
- test-name: Anticancer human tumor 377384-186-R-J1-PDC patient-derived pancreatic carcinoma cell line growth inhibition [CLK]
- particulars: second compound 10 µM; first compound 0.0316 µM; stronger effect = lower value
metric-name: viability, T/C (%)
Kindly provide the numeric value in % only, without the unit symbol.

Guide cases for viability, T/C, answers given:
CC(CO)NC(=O)c1cc(-c2ccc(Cl)cc2)nn(-c2cnn(C)c2)c1=O (stereo unspecified) + CN1CCN(c2cc(C(=O)Nc3cc4cc(-c5cnn(C)c5)ccc4cn3)ccn2)CC1 | 0.55
CCN1CCN(Cc2ccc(Nc3ncc(F)c(-c4cc(F)c5nc(C)n(C(C)C)c5c4)n3)nc2)CC1 + CN1CCN(c2cc(C(=O)Nc3cc4cc(-c5cnn(C)c5)ccc4cn3)ccn2)CC1 | 0.55
COc1cccc2c1C(=O)c1c(O)c3c(c(O)c1C2=O)CC(O)(C(=O)CO)CC3OC1CC(N)C(O)C(C)O1 (stereo unspecified) + CN1CCN(c2cc(C(=O)Nc3cc4cc(-c5cnn(C)c5)ccc4cn3)ccn2)CC1 | 0.49
COc1ccc([C@@H](O)c2cc(-c3ncnc4cc(N5CCOCC5)ccc34)c(F)cc2Cl)nn1 + CNC(=O)c1ccc(Nc2nc(OC3CCCC3)c3c(-c4ccc5nc(C)oc5c4)c[nH]c3n2)c(OC)c1 | 15.7
O=C(c1cc(Cc2n[nH]c(=O)c3ccccc23)ccc1F)N1CCN(C(=O)C2CC2)CC1 + CNC(=O)c1ccc(Nc2nc(OC3CCCC3)c3c(-c4ccc5nc(C)oc5c4)c[nH]c3n2)c(OC)c1 | 18.7

[in] Query (compound): CC1COCCN1c1cc(C2(S(C)(=N)=O)CC2)nc(-c2ccnc3[nH]ccc23)n1 (stereo unspecified) + CNC(=O)c1ccc(Nc2nc(OC3CCCC3)c3c(-c4ccc5nc(C)oc5c4)c[nH]c3n2)c(OC)c1 ; field requested: viability, T/C
[out] 20.4

[in] Another: Nc1ccccc1NC(=O)c1ccc(CNC(=O)OCc2cccnc2)cc1 + CN1CCN(c2cc(C(=O)Nc3cc4cc(-c5cnn(C)c5)ccc4cn3)ccn2)CC1
[out] 0.58

[in] How about CCc1c2c(nc3ccc(O)cc13)-c1cc3c(c(=O)n1C2)COC(=O)[C@]3(O)CC + CN1CCN(c2cc(C(=O)Nc3cc4cc(-c5cnn(C)c5)ccc4cn3)ccn2)CC1 ?
[out] 0.38

----------
- Tested on: 377384-186-R-J1-PDC complex spheroid viability
- test-name: Anticancer human tumor 377384-186-R-J1-PDC cell line growth inhibition [CLK];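 also: luminescence signal used as a stand-in for viable cells; spheroids exposed to agents for 7 days before reading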
- particulars: second compound 3.16 µM; first compound 0.316 µM; stronger effect = lower value
Define the label as 1.0 when viability, T/C is strictly less than 1% and as 0.0 in all remaining cases.

Would you please look over these solved cases?
CC1(C)CCC(CN2CCN(c3ccc(C(=O)NS(=O)(=O)c4ccc(NCC5CCOCC5)c([N+](=O)[O-])c4)c(Oc4cnc5[nH]ccc5c4)c3)CC2)=C(c2ccc(Cl)cc2)C1 + CNC(=O)c1ccc(Nc2nc(OC3CCCC3)c3c(-c4ccc5nc(C)oc5c4)c[nH]c3n2)c(OC)c1 | 0.0
CC(=O)O[C@H]1C(=O)[C@@]2(C)[C@H]([C@H](OC(=O)c3ccccc3)[C@]3(O)C[C@H](OC(=O)[C@H](O)[C@@H](NC(=O)c4ccccc4)c4ccccc4)C(C)=C1C3(C)C)[C@]1(OC(C)=O)CO[C@@H]1C[C@@H]2O + CN1CCN(c2cc(C(=O)Nc3cc4cc(-c5cnn(C)c5)ccc4cn3)ccn2)CC1 | 1.0
CC1(C)CCC(CN2CCN(c3ccc(C(=O)NS(=O)(=O)c4ccc(NCC5CCOCC5)c([N+](=O)[O-])c4)c(Oc4cnc5[nH]ccc5c4)c3)CC2)=C(c2ccc(Cl)cc2)C1 + CN1CCN(c2cc(C(=O)Nc3cc4cc(-c5cnn(C)c5)ccc4cn3)ccn2)CC1 | 1.0
Nc1ccn(C2OC(CO)C(O)C2(F)F)c(=O)n1 (centres undefined) + CN1CCN(c2cc(C(=O)Nc3cc4cc(-c5cnn(C)c5)ccc4cn3)ccn2)CC1 | 1.0

[in] Report whether reported viability, T/C is lower than 1% (strictly) for COc1ccc([C@@H](O)c2cc(-c3ncnc4cc(N5CCOCC5)ccc34)c(F)cc2Cl)nn1 + CN1CCN(c2cc(C(=O)Nc3cc4cc(-c5cnn(C)c5)ccc4cn3)ccn2)CC1
[out] 0.0

[in] What do we get for CCCS(=O)(=O)Nc1ccc(F)c(C(=O)c2c[nH]c3ncc(-c4ccc(Cl)cc4)cc23)c1F + CNC(=O)c1ccc(Nc2nc(OC3CCCC3)c3c(-c4ccc5nc(C)oc5c4)c[nH]c3n2)c(OC)c1 ?
[out] 0.0

[in] Queued: COc1cccc2c1C(=O)c1c(O)c3c(c(O)c1C2=O)CC(O)(C(=O)CO)CC3OC1CC(N)C(O)C(C)O1 (centres undefined) + CNC(=O)c1ccc(Nc2nc(OC3CCCC3)c3c(-c4ccc5nc(C)oc5c4)c[nH]c3n2)c(OC)c1
[out] 1.0

[in] Let us now turn to COC1C=CCC(C)C(C)S(=O)(=O)NC(=O)c2ccc3c(c2)N(CC2CCC21)CC1(CCCc2cc(Cl)ccc21)CO3 (centres undefined) + CN1CCN(c2cc(C(=O)Nc3cc4cc(-c5cnn(C)c5)ccc4cn3)ccn2)CC1
[out] 1.0

[in] Also check CC(Nc1ccc2c(c1)OCCn1cc(N3C(=O)OCC3C(F)F)nc1-2)C(N)=O (centres undefined) + CNC(=O)c1ccc(Nc2nc(OC3CCCC3)c3c(-c4ccc5nc(C)oc5c4)c[nH]c3n2)c(OC)c1
[out] 0.0

----------
The reader will find reported viability, T/C values listed item by item below.
- System: 377384-186-R-J1-PDC complex spheroid viability
- test-name: Anticancer human tumor 377384-186-R-J1-PDC cell line growth inhibition [CLK];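 also: luminescence signal used as a stand-in for viable cells; spheroids exposed to agents for 7 days before reading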
- particulars: second compound 0.316 µM; first compound 3.16 µM; stronger effect = lower value
Provide only the numeric value, understood in %.

Consider the following illustrative entries.
CC(=O)O[C@H]1C(=O)[C@@]2(C)[C@H]([C@H](OC(=O)c3ccccc3)[C@]3(O)C[C@H](OC(=O)[C@H](O)[C@@H](NC(=O)c4ccccc4)c4ccccc4)C(C)=C1C3(C)C)[C@]1(OC(C)=O)CO[C@@H]1C[C@@H]2O + CNC(=O)c1ccc(Nc2nc(OC3CCCC3)c3c(-c4ccc5nc(C)oc5c4)c[nH]c3n2)c(OC)c1 | 42.3
CC(Nc1ccc2c(c1)OCCn1cc(N3C(=O)OCC3C(F)F)nc1-2)C(N)=O (stereo unspecified) + CNC(=O)c1ccc(Nc2nc(OC3CCCC3)c3c(-c4ccc5nc(C)oc5c4)c[nH]c3n2)c(OC)c1 | 13.5
O=C(c1cc(Cc2n[nH]c(=O)c3ccccc23)ccc1F)N1CCN(C(=O)C2CC2)CC1 + CNC(=O)c1ccc(Nc2nc(OC3CCCC3)c3c(-c4ccc5nc(C)oc5c4)c[nH]c3n2)c(OC)c1 | 15.3
C=CC(=O)N1CCN(c2nc(=O)n(-c3c(C)ccnc3C(C)C)c3nc(-c4c(O)cccc4F)c(F)cc23)C(C)C1 (stereo unspecified) + CNC(=O)c1ccc(Nc2nc(OC3CCCC3)c3c(-c4ccc5nc(C)oc5c4)c[nH]c3n2)c(OC)c1 | 24

[in] Which viability, T/C is reported for this molecule? O=C(c1cc(Cc2n[nH]c(=O)c3ccccc23)ccc1F)N1CCN(C(=O)C2CC2)CC1 + CN1CCN(c2cc(C(=O)Nc3cc4cc(-c5cnn(C)c5)ccc4cn3)ccn2)CC1
[out] 24.1

[in] Another molecule to look at: CC(=O)O[C@H]1C(=O)[C@@]2(C)[C@H]([C@H](OC(=O)c3ccccc3)[C@]3(O)C[C@H](OC(=O)[C@H](O)[C@@H](NC(=O)c4ccccc4)c4ccccc4)C(C)=C1C3(C)C)[C@]1(OC(C)=O)CO[C@@H]1C[C@@H]2O + CN1CCN(c2cc(C(=O)Nc3cc4cc(-c5cnn(C)c5)ccc4cn3)ccn2)CC1
[out] 15.1

----------
- Tested on: 377384-186-R-J1-PDC complex spheroid viability
- test-name: Anticancer human tumor 377384-186-R-J1-PDC cell line growth inhibition [CLK];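 also: luminescence signal used as a stand-in for viable cells; spheroids exposed to agents for 7 days before reading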
- particulars: second compound 1 µM; first compound 0.3 µM; stronger effect = lower value
viability, T/C strictly less than 2% = condition met. Otherwise condition not met.

Here's what some known entries look like.
CC(C)CC(NC(=O)C(Cc1ccccc1)NC(=O)c1cnccn1)B(O)O (stereo unspecified) + CN1CCN(c2cc(C(=O)Nc3cc4cc(-c5cnn(C)c5)ccc4cn3)ccn2)CC1 | condition met
C=CC(=O)Nc1cc(Nc2nccc(-c3cn(C)c4ccccc34)n2)c(OC)cc1N(C)CCN(C)C + CNC(=O)c1ccc(Nc2nc(OC3CCCC3)c3c(-c4ccc5nc(C)oc5c4)c[nH]c3n2)c(OC)c1 | condition not met
NC(=O)C(=Cn1cnc(-c2cc(C(F)(F)F)cc(C(F)(F)F)c2)n1)c1cncnc1 + CN1CCN(c2cc(C(=O)Nc3cc4cc(-c5cnn(C)c5)ccc4cn3)ccn2)CC1 | condition met
CC(C)CC(NC(=O)C(Cc1ccccc1)NC(=O)c1cnccn1)B(O)O (stereo unspecified) + CNC(=O)c1ccc(Nc2nc(OC3CCCC3)c3c(-c4ccc5nc(C)oc5c4)c[nH]c3n2)c(OC)c1 | condition met
C=CC(=O)Nc1cc(Nc2nccc(-c3cn(C)c4ccccc34)n2)c(OC)cc1N(C)CCN(C)C + CN1CCN(c2cc(C(=O)Nc3cc4cc(-c5cnn(C)c5)ccc4cn3)ccn2)CC1 | condition met

# input for lookup
[in] Lab log: compare recorded viability, T/C with 2%; is it strictly lower for NC(=O)C(=Cn1cnc(-c2cc(C(F)(F)F)cc(C(F)(F)F)c2)n1)c1cncnc1 + CNC(=O)c1ccc(Nc2nc(OC3CCCC3)c3c(-c4ccc5nc(C)oc5c4)c[nH]c3n2)c(OC)c1 ?
[out] condition not met
